Cited source for all entries: the RNAGym collection of RNA variant scans (doi:10.7554/elife.80360)

B1: Hairpin Ribozyme (parent)
chain: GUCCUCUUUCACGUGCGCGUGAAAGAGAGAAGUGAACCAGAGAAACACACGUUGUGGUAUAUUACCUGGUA

Variants of: B1
Assay: self-cleavage, relative activity (ratio to wild type); higher = more cleavage; co-transcriptional
This section presents variants with their documented self-cleavage values.

{"Mutation id": "U5G G29U", "self-cleavage": 0.168}
{"Mutation id": "C3A A23G", "self-cleavage": 0.613}
{"Mutation id": "U33G C65A", "self-cleavage": 0.189}
{"Mutation id": "C12A A26C", "self-cleavage": 0.393}
{"Mutation id": "G17A G27A", "self-cleavage": 0.547}
{"Mutation id": "A59G U60G", "self-cleavage": 0.311}
{"Mutation id": "A41G A47U", "self-cleavage": 0.212}
{"Mutation id": "A41C C50G", "self-cleavage": 0.667}
{"Mutation id": "G32A G54A", "self-cleavage": 0.156}
{"Mutation id": "G1A C48U", "self-cleavage": 0.0691}
{"Mutation id": "C50U A59C", "self-cleavage": 0.166}
{"Mutation id": "C4G A41U", "self-cleavage": 0.558}
{"Mutation id": "C12U C65U", "self-cleavage": 0.348}
{"Mutation id": "U2A G17A", "self-cleavage": 0.274}
{"Mutation id": "A45G U62G", "self-cleavage": 0.12}
{"Mutation id": "A24G C38A", "self-cleavage": 0.125}
{"Mutation id": "C66U G69U", "self-cleavage": 0.187}
{"Mutation id": "C6U C48U", "self-cleavage": 0.227}
{"Mutation id": "A28C A49G", "self-cleavage": 0.173}
{"Mutation id": "C10G A45G", "self-cleavage": 0.118}
{"Mutation id": "A22C A71U", "self-cleavage": 0.685}
{"Mutation id": "G17C A39C", "self-cleavage": 0.528}
{"Mutation id": "C3U A39U", "self-cleavage": 0.253}
{"Mutation id": "C12G G29A", "self-cleavage": 0.138}
{"Mutation id": "G29C C65U", "self-cleavage": 0.135}
{"Mutation id": "C10G U33A", "self-cleavage": 0.138}
{"Mutation id": "U33C G42C", "self-cleavage": 0.0894}
{"Mutation id": "U33C U63G", "self-cleavage": 0.0654}
{"Mutation id": "C37A G42C", "self-cleavage": 0.16}
{"Mutation id": "U60A A61G", "self-cleavage": 0.216}
{"Mutation id": "C12G G21A", "self-cleavage": 0.683}
{"Mutation id": "A45U U58A", "self-cleavage": 0.132}
{"Mutation id": "G32A G56C", "self-cleavage": 0.0365}
{"Mutation id": "C10A U52C", "self-cleavage": 0.81}
{"Mutation id": "C10U U52A", "self-cleavage": 0.761}
{"Mutation id": "A39U U67G", "self-cleavage": 0.371}
{"Mutation id": "C46A U55G", "self-cleavage": 0.253}
{"Mutation id": "A24C A28C", "self-cleavage": 0.349}
{"Mutation id": "C6U C38A", "self-cleavage": 0.0889}
{"Mutation id": "C3G U70A", "self-cleavage": 0.252}
{"Mutation id": "G32A U62C", "self-cleavage": 0.128}
{"Mutation id": "C4A U67C", "self-cleavage": 0.0871}
{"Mutation id": "A45G A61U", "self-cleavage": 0.0962}
{"Mutation id": "U8A G68U", "self-cleavage": 0.172}
{"Mutation id": "G19U A59G", "self-cleavage": 0.204}
{"Mutation id": "C10A A59G", "self-cleavage": 0.149}
{"Mutation id": "G25C U53G", "self-cleavage": 0.39}
{"Mutation id": "A28G C46U", "self-cleavage": 0.137}
{"Mutation id": "A31U C65G", "self-cleavage": 0.166}
{"Mutation id": "A43G U63C", "self-cleavage": 0.156}
{"Mutation id": "A22G G68C", "self-cleavage": 0.182}
{"Mutation id": "U9C G69U", "self-cleavage": 0.256}
{"Mutation id": "A30C G56C", "self-cleavage": 0.0453}
{"Mutation id": "A35G U62A", "self-cleavage": 0.368}
{"Mutation id": "A22G A45G", "self-cleavage": 0.115}
{"Mutation id": "A11C C66A", "self-cleavage": 0.317}
{"Mutation id": "C37U U70C", "self-cleavage": 0.603}
{"Mutation id": "U53G G57U", "self-cleavage": 0.164}
{"Mutation id": "C12G U14C", "self-cleavage": 0.61}
{"Mutation id": "G15C C48G", "self-cleavage": 0.109}
{"Mutation id": "U9G G56C", "self-cleavage": 0.0826}
{"Mutation id": "A26C U58C", "self-cleavage": 0.771}
{"Mutation id": "C48A U58C", "self-cleavage": 0.154}
{"Mutation id": "U20C C66U", "self-cleavage": 0.486}
{"Mutation id": "A36C A64C", "self-cleavage": 0.11}
{"Mutation id": "G21U C38U", "self-cleavage": 0.357}
{"Mutation id": "G54C G57C", "self-cleavage": 0.155}
{"Mutation id": "A36G A49C", "self-cleavage": 0.0302}
{"Mutation id": "A11U U20C", "self-cleavage": 1.11}
{"Mutation id": "A26G U33C", "self-cleavage": 0.0771}
{"Mutation id": "G40C A71U", "self-cleavage": 0.09}
{"Mutation id": "A28U U60G", "self-cleavage": 0.3}
{"Mutation id": "A28C A44U", "self-cleavage": 0.046}
{"Mutation id": "A47C U52A", "self-cleavage": 0.407}
{"Mutation id": "G13A C18U", "self-cleavage": 1.1}
{"Mutation id": "G17U U53A", "self-cleavage": 0.841}
{"Mutation id": "U9G U63G", "self-cleavage": 0.206}
{"Mutation id": "C46A G56A", "self-cleavage": 0.167}
{"Mutation id": "A26G C66A", "self-cleavage": 0.171}
{"Mutation id": "G34A A44G", "self-cleavage": 0.259}
